Target: T1, Recombinant Human FGFR2 alpha (IIIc) Fc Chimera Protein, CF (R&D systems, 712-FR-050) (human, UniProt P21802 22-377)
T1 construct: bought; not shown: Fc part of the chimera
T1 sequence (P21802 22-377, change not shown): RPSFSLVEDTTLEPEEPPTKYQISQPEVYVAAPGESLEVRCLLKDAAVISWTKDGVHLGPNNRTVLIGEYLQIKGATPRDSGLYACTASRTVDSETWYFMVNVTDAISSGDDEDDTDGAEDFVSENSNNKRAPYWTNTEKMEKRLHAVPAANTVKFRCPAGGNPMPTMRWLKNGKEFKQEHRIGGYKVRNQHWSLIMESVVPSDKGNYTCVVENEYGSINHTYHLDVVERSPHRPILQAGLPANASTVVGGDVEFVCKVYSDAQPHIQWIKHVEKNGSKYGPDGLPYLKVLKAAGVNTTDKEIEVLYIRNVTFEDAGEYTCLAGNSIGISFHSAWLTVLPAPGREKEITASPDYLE
Assay: ELISA on plate-bound FGFR2-Fc
Bridge positions count the residues as written; N and C are the ends. Ends that are not written are not given here. COCH2 = acetyl group that carries the bridge
# ELISA luminescence signal at 10 nmol/L peptide, relative to SEQ ID NO: 47 (=1) per record follows

# example entries with known answers
BINDER	VALUE OBSERVED
YCEENYLDPEQYQYFIWFK(COCH2)Y (thioether 2-19 (inferred)) [cyclic peptide SEQ ID NO: 297]	≥ 0.7 ratio
YCEENYLHPEQYQYFIYFK(COCH2)Y (thioether 2-19 (inferred)) [cyclic peptide SEQ ID NO: 220]	≥ 0.7 ratio
YCEENYLDPEQYQYFIYFK(COCH2)D (thioether 2-19 (inferred)) [cyclic peptide SEQ ID NO: 318]	≥ 0.7 ratio
CHENYLDPEQYQYFHYFK(COCH2)Y (thioether 1-18 (inferred)) [cyclic peptide SEQ ID NO: 430]	≥ 0.7 ratio
QCIQDLYLYLYFLK(COCH2)T (thioether 2-14) [cyclic peptide SEQ ID NO: 376]	0.1 to 0.5 ratio
YCEENYLDPEQYQYFIYFK(COCH2)Q (thioether 2-19 (inferred)) [cyclic peptide SEQ ID NO: 315]	≥ 0.7 ratio
MCEENYLDPEQYQYFIYFK(COCH2)Y (thioether 2-19) [cyclic peptide SEQ ID NO: 347]	≥ 0.7 ratio
YCEENYLDPEQYQYFGYFK(COCH2)Y (thioether 2-19 (inferred)) [cyclic peptide SEQ ID NO: 277]	0.1 to 0.5 ratio
PCEVYNYWYPTQWFFFTQFK(COCH2)K (thioether 2-20; not fully specified; printed as P-(C)-EVYNYWYPTQWFFFTQF-(K(acetyl))-K) [cyclic peptide SEQ ID NO: 402]	≥ 0.7 ratio
YCIENYLDPEQYQYFIYFK(COCH2)Y (thioether 2-19) [cyclic peptide SEQ ID NO: 154]	≥ 0.7 ratio

Now look at this one.
Given the entry YCEENYLDPEQYQYFIYFK(COCH2)A (thioether 2-19) [cyclic peptide SEQ ID NO: 334] , report its measured ELISA luminescence signal at 10 nmol/L peptide, relative to SEQ ID NO: 47 (=1).
≥ 0.7 ratio
